# System: EU-1
# procedureSummary: WST cytotoxicity assay, cancer cell EU-1
# Assay type: cell-based, human
# conditionNotes: Homo sapiens, EU-1, EU-1; no other cell line named in the cell; read-out: Cancer cell (EU-1) cytotoxicity IC50
reportedMetric: IC50

molecule	experimentalSystem	reportedMetric	observedMeasurement
Cc1ccc(NS(=O)(=O)c2ccc3c(c2)C2OCC[C@H]2C(c2ccc(C(=O)c4ccccc4)cc2)N3)cc1C (stereo in doubt) [Compound 69L54]	EU-1	IC50	3.22 µM
Cc1cccc(NS(=O)(=O)c2ccc3c(c2)C(=O)CC(c2ccc(C(=O)C(C)C)cc2)N3)c1 (stereo not shown) [Compound 69L99]	EU-1	IC50	0.23 µM
Cc1ccc(NS(=O)(=O)c2ccc3c(c2)C2OCC[C@@H]2[C@H](c2ccc(C(=O)C(C)C)cc2)N3)cc1C (stereo partly shown) [Compound 69L52d]	EU-1	IC50	0.5 µM
Cc1cc(NS(=O)(=O)c2ccc3c(c2)C2OCC[C@H]2C(C2CCCCC2)N3)ccc1C(F)(F)F (stereo partly shown) [Compound 69L90]	EU-1	IC50	3.26 µM

###

# System: 697 cell line
# procedureSummary: WST cytotoxicity assay, 697 cell line
# Type: cell-based
# conditionNotes: read-out: Cancer cell cytotoxicity IC50
pIC50: −log10 of the molar value.
Given measured pIC50, output label 1 if it is greater than or equal to 6 and label 0 if not.

molecule	className
Cc1ccc(NS(=O)(=O)c2ccc3c(c2)C2OCC[C@H]2[C@H](C2CCN(C(=O)OC(C)(C)C)CC2)N3)cc1C (stereo partly drawn) [Compound 69L64]	label 1
O=S(=O)(Nc1ccc(Cl)c(Cl)c1)c1ccc2c(c1)C1OCC[C@H]1[C@H](C1CCCCC1)N2 (stereo partly drawn) [Compound 69L60]	label 0
Cc1ccc(NS(=O)(=O)c2ccc3c(c2)C2OCC[C@H]2C2(CCCCC2)N3)cc1C (stereo partly drawn) [Compound 69L62]	label 1
Cc1ccc(NS(=O)(=O)c2ccc3c(c2)C2OCC[C@H]2C(c2cccc4ccccc24)N3)cc1C (stereo partly drawn) [Compound 69L63]	label 0
Cc1ccc(NS(=O)(=O)c2ccc3c(c2)C2OCC[C@H]2C(c2ccc(C(=O)C(C)C)cc2)N3)cc1C (stereo partly drawn) [Compound 69L52]	label 1
Cc1ccc(NS(=O)(=O)c2ccc3c(c2)C2NCC[C@H]2C(C2CCCCC2)N3)cc1C (stereo partly drawn) [Compound 69L61]	label 0

###

# Tested on: EU-1
# procedureSummary: WST cytotoxicity assay, cancer cell EU-1
# Assay type: cell-based, human
# conditionNotes: Homo sapiens, EU-1, EU-1; no other cell line named in the cell; read-out: Cancer cell (EU-1) cytotoxicity IC50
pIC50: −log10 of the molar value.
Is pIC50 at least 6? Then T. If not, F.

compound	className
Cc1ccc(NS(=O)(=O)c2ccc3c(c2)[C@H]2OCC[C@H]2C(c2ccc(C(=O)C4CCCCC4)cc2)N3)cc1C (some centres unmarked) [Compound 69L70]	F
CC(=O)c1ccc([C@@H]2Nc3ccc(S(=O)(=O)Nc4ccc(C)c(C)c4)cc3C3NCC[C@H]32)cc1 (some centres unmarked) [Compound 69L50]	F
O=S(=O)(Nc1ccccc1)c1ccc2c(c1)[C@H]1OCC[C@H]1[C@H](C1CCCCC1)N2 [Compound 69L66]	F
CC(C)C(=O)c1cccc(C2CC(=O)c3cc(S(=O)(=O)Nc4cccc5c4COC5=O)ccc3N2)c1 (centres unmarked) [Compound 69L149]	T
CC(=O)c1cccc(NS(=O)(=O)c2ccc3c(c2)C2NCC[C@H]2[C@@H](c2ccc(C(=O)C(C)C)cc2)N3)c1 (stereo partly drawn) [69L130 trans]	F
CC(=O)c1cccc(C2CC(=O)c3cc(S(=O)(=O)Nc4cccc(C(C)C)c4)ccc3N2)c1 (centres unmarked) [Compound 69L135]	T
Cc1ccc(NS(=O)(=O)c2ccc3c(c2)C2OCC[C@H]2C(c2cccc(C(=O)C(C)C)c2)N3)cc1C (some centres unmarked) [Compound 69L94]	F
Cc1ccc(NS(=O)(=O)c2ccc3c(c2)[C@H]2NCC[C@H]2[C@H](c2ccc(C(=O)C(C)C)cc2)N3)cc1C [Compound 69L82]	F
O=S(=O)(Nc1ccc(C(F)(F)F)c(C(F)(F)F)c1)c1ccc2c(c1)C1OCC[C@H]1C(C1CCCCC1)N2 (some centres unmarked) [Compound 69L91]	F
CCc1cccc(NS(=O)(=O)c2ccc3c(c2)C(=O)CC(c2cccc(C(=O)N(C)C)c2)N3)c1 (centres unmarked) [Compound 69L166]	T
CCc1cccc(NS(=O)(=O)c2ccc3c(c2)C(=O)CC(c2cccc(C(=O)C(C)C)c2)N3)c1 (centres unmarked) [Compound 69L150]	T
Cc1ccc(NS(=O)(=O)c2ccc3c(c2)C(=O)CC(c2cccc(C(=O)C(C)C)c2)N3)cc1C (centres unmarked) [Compound 69L114]	T

Hey, just so you know, these numbers are from patent US20240059658A1.
